Attribution: patent US20260151494A1

- measured target: apical domain of CD71 (Screen 3: 'cynomolgus apical domain of human CD71') (cynomolgus (as paragraph 454 words it; ambiguous))
- test: primary ELISA, RLU ratio to HSA
property: Apical domain:HSA

binder	observed measurement
CD71-binding FN3 domain SEQ ID NO: 255 (designed binder) MSLPAPKNLVVSRVTEDSARLSWTTPDAAFDSFEIAYFEIAWLGEAIVLTVPGSERSYDLTGLKPGTEYWVQIGGVKGGAYSTPLSAIFTT	131
CD71-binding FN3 domain SEQ ID NO: 290 (designed binder) MSLPAPKNLVVSRVTEDSARLSWTAPDAAFDSFFIGYLEPQPPGEAIHLYVPGSERSYDLTGLKPGTEYNVTIQGVKGGFPSEPLVATFTT	158
CD71-binding FN3 domain SEQ ID NO: 269 (designed binder) MSLPAPKNLVVSRVTEDSARLSWTAPDAAFDSFEIGYFENDYFGEAIVLTVPGSERSYDLTGLKPGTEYVVFIGGVKGGNWSAPLSAIFTT	481
CD71-binding FN3 domain SEQ ID NO: 303 (designed binder) MSLPAPKNLVVSRVTEDSARLSWTAPDAAFDSFWIEYWEGWKSGEAIVLTVPGSERSYDLTGLKPGTEYRVHIWGVKGGIVSWPLSAIFTT	636
